src = patent US20240109974A1

Target: T1, human TNFR2 on the surface of CHO-TNFR2 cells (human, UniProt P20333 23-461)
T1 construct: whole, on cells
T1 sequence (looked up): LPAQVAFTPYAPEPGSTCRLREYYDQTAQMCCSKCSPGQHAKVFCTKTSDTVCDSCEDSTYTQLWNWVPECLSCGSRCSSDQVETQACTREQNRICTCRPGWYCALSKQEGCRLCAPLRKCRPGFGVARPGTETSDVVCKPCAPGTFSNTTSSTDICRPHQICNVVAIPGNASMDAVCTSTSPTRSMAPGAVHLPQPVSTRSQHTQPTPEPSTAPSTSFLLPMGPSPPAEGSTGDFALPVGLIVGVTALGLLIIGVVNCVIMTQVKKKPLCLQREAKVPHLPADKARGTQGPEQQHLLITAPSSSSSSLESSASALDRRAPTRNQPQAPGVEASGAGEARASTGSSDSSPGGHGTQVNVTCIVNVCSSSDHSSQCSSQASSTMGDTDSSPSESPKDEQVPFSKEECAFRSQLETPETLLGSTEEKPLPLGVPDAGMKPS
Assay: competition flow cytometry on CHO-TNFR2 cells, competitor TNFα-biotin; area under the MFI curve
Parameters: unit not given beside the values
MEASURED ATTRIBUTE: AUC
Please reply with the value in numeric form only.

[
  {
    "BINDER": "219-Hu4 (antibody, V domains shown, also called VH6 + VL5) VH: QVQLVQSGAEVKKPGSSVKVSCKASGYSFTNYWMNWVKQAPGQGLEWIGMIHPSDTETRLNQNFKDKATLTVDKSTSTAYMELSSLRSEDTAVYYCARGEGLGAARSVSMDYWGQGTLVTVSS VL: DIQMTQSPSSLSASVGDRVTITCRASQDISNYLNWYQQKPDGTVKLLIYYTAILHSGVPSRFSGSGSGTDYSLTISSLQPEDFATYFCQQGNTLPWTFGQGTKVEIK",
    "AUC": 7320
  }
]

Output measured AUC for this item: 219-Hu2 (antibody, V domains shown, also called VH4 + VL5) VH: QVQLVQSGAEVKKPGSSVKVSCKASGYSFTNYWMNWVRQAPGQGLEWMGMIHPSDTETRLNQNFKDKATITADKSTSTAYMELSSLRSEDTAVYYCARGEGLGAARSVSMDYWGQGTLVTVSS VL: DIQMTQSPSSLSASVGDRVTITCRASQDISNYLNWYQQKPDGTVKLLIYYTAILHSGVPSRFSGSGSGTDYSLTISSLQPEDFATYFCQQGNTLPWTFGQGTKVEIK
7340

Give a short answer stating reported AUC for 224-Hu1 (antibody, V domains shown, Humanized form of #224; also called VH8 + VL6) VH: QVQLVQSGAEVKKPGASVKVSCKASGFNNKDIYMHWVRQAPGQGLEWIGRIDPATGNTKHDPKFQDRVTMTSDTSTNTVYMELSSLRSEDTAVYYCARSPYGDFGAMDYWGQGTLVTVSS VL: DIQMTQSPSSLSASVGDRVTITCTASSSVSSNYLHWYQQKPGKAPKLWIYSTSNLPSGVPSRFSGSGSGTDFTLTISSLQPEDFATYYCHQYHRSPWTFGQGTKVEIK .
20300

Query AUC for 224-Hu7 (antibody, V domains shown, Humanized form of #224; also called VH9 + VL10) VH: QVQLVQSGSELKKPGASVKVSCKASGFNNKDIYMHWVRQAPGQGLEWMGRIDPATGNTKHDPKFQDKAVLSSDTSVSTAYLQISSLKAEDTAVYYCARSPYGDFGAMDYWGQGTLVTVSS VL: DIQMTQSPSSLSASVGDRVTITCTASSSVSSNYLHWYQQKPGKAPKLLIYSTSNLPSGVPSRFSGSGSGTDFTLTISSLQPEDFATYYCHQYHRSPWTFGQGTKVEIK
19600

// fetch AUC given entry 224-Hu4 (antibody, V domains shown, Humanized form of #224; also called VH9 + VL6) VH: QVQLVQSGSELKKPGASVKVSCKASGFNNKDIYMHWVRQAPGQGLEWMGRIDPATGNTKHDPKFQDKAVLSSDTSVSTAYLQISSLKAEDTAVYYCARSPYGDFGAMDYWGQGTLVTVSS VL: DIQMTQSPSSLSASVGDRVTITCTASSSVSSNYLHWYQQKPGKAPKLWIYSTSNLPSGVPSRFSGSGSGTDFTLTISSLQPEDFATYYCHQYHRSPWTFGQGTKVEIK
14200
